system: ASPS-1 complex tumor spheroids, viability; experiment: Anticancer human tumor ASPS-1 cell line growth inhibition; settings: second compound 94.9 pM; first compound 3.16 µM; stronger effect = lower value;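 also: spheroids exposed to agents for 7 days after 3 days of growth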;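 as to viability, T/C: 100% = DMSO vehicle treated spheroids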
A collection of compounds and their measured viability, T/C
result_type: viability, T/C (%)

compound	result_type	result
COc1cc(C)[nH]c(=O)c1CN1CCc2c(Cl)cc(C(OC)C3COC3)c(Cl)c2C1=O (configuration not stated) + COc1cc2c(cc1O)CCNC21CSC2c3c(OC(C)=O)c(C)c4c(c3C(COC1=O)N1C(O)C3Cc5cc(C)c(OC)c(O)c5C(C21)N3C)OCO4	viability, T/C	100
[2H]c1nc(C)nc([2H])c1-c1cc(NC[C@@H](C)c2cccc3c(C(=O)NC)ccnc23)ncn1 + COc1cc2c(cc1O)CCNC21CSC2c3c(OC(C)=O)c(C)c4c(c3C(COC1=O)N1C(O)C3Cc5cc(C)c(OC)c(O)c5C(C21)N3C)OCO4	viability, T/C	97.6

----------
A collection of molecules and their measured IC50
test system: ASPS-1 complex tumor spheroids, viability; assay: Anticancer human tumor ASPS-1 cell line growth inhibition; details: curve of first compound; second compound 0.00949 µM;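 also: spheroids exposed to agents for 7 days after 3 days of growth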
result_type: IC50 (µM)

molecule	result_type	result
COc1ccc([C@@H](O)c2cc(-c3ncnc4cc(N5CCOCC5)ccc34)c(F)cc2Cl)nn1 + CC[C@@]1(O)C(=O)OCc2c1cc1n(c2=O)Cc2cc3c(CN(C)C)c(O)ccc3nc2-1	IC50	6.69
CC(C)n1c(=O)n(C)c2cnc3cc(F)c(-c4ccc(OCCCN5CCCCC5)nc4)cc3c21 + CC[C@@]1(O)C(=O)OCc2c1cc1n(c2=O)Cc2cc3c(CN(C)C)c(O)ccc3nc2-1	IC50	5.2
CNCc1ccc(-c2cc(-c3nc(-c4ccc(S(=O)(=O)C(C)C)cc4)cnc3N)on2)cc1 + CC[C@@]1(O)C(=O)OCc2c1cc1n(c2=O)Cc2cc3c(CN(C)C)c(O)ccc3nc2-1	IC50	0.412

----------
tested on: ASPS-1 complex tumor spheroids, viability; experiment: Anticancer human tumor ASPS-1 cell line growth inhibition; conditions: second compound 0.003 µM; first compound 0.3 µM; stronger effect = lower value;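 also: spheroids exposed to agents for 7 days after 3 days of growth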;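 as to viability, T/C: 100% = DMSO vehicle treated spheroids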
result_type: viability, T/C (%)

molecule	unit_text	result
CNCc1ccc(-c2cc(-c3nc(-c4ccc(S(=O)(=O)C(C)C)cc4)cnc3N)on2)cc1 + COc1cc2c(cc1O)CCNC21CSC2c3c(OC(C)=O)c(C)c4c(c3C(COC1=O)N1C(O)C3Cc5cc(C)c(OC)c(O)c5C(C21)N3C)OCO4	%	2.85
Cc1sc2c(c1C)C(c1ccc(Cl)cc1)=NC(CC(=O)Nc1ccc(O)cc1)c1nnc(C)n1-2 (stereo not drawn) + COc1cc2c(cc1O)CCNC21CSC2c3c(OC(C)=O)c(C)c4c(c3C(COC1=O)N1C(O)C3Cc5cc(C)c(OC)c(O)c5C(C21)N3C)OCO4	%	20.9
O=C(c1cc(Cc2n[nH]c(=O)c3ccccc23)ccc1F)N1CCN(C(=O)C2CC2)CC1 + CC[C@@]1(O)C(=O)OCc2c1cc1n(c2=O)Cc2cc3c(CN(C)C)c(O)ccc3nc2-1	%	107

----------
tested on: ASPS-1 complex tumor spheroids, viability; assay: Anticancer human tumor ASPS-1 cell line growth inhibition; conditions: second compound 30 pM; first compound 3.16 µM; stronger effect = lower value;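 also: spheroids exposed to agents for 7 days after 3 days of growth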;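 as to viability, T/C: 100% = DMSO vehicle treated spheroids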
A collection of molecules and their measured viability, T/C
result_type: viability, T/C (%)

molecule	result
CC1COCCN1c1cc(-c2ccnn2C)c2ccnc(-c3ccn[nH]3)c2n1 (stereo unspecified) + COc1cc2c(cc1O)CCNC21CSC2c3c(OC(C)=O)c(C)c4c(c3C(COC1=O)N1C(O)C3Cc5cc(C)c(OC)c(O)c5C(C21)N3C)OCO4	40.7
COc1cc(C)[nH]c(=O)c1CN1CCc2c(Cl)cc(C(OC)C3COC3)c(Cl)c2C1=O (stereo unspecified) + COc1cc2c(cc1O)CCNC21CSC2c3c(OC(C)=O)c(C)c4c(c3C(COC1=O)N1C(O)C3Cc5cc(C)c(OC)c(O)c5C(C21)N3C)OCO4	102
COc1ccc([C@@H](O)c2cc(-c3ncnc4cc(N5CCOCC5)ccc34)c(F)cc2Cl)nn1 + COc1cc2c(cc1O)CCNC21CSC2c3c(OC(C)=O)c(C)c4c(c3C(COC1=O)N1C(O)C3Cc5cc(C)c(OC)c(O)c5C(C21)N3C)OCO4	77
Cc1cc(C)c(CNC(=O)c2cc(-c3ccc(CN4CCOCC4)cc3)cc3c2cnn3C2CCCC2)c(=O)[nH]1 + COc1cc2c(cc1O)CCNC21CSC2c3c(OC(C)=O)c(C)c4c(c3C(COC1=O)N1C(O)C3Cc5cc(C)c(OC)c(O)c5C(C21)N3C)OCO4	96.9
CC(C)n1c(=O)n(C)c2cnc3cc(F)c(-c4ccc(OCCCN5CCCCC5)nc4)cc3c21 + COc1cc2c(cc1O)CCNC21CSC2c3c(OC(C)=O)c(C)c4c(c3C(COC1=O)N1C(O)C3Cc5cc(C)c(OC)c(O)c5C(C21)N3C)OCO4	83.7
[2H]c1nc(C)nc([2H])c1-c1cc(NC[C@@H](C)c2cccc3c(C(=O)NC)ccnc23)ncn1 + COc1cc2c(cc1O)CCNC21CSC2c3c(OC(C)=O)c(C)c4c(c3C(COC1=O)N1C(O)C3Cc5cc(C)c(OC)c(O)c5C(C21)N3C)OCO4	102

----------
A collection of compounds and their measured viability, T/C
tested on: ASPS-1 complex tumor spheroids, viability; experiment: Anticancer human tumor ASPS-1 cell line growth inhibition; conditions: second compound 94.9 pM; first compound 3 µM; stronger effect = lower value;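 also: spheroids exposed to agents for 7 days after 3 days of growth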;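 as to viability, T/C: 100% = DMSO vehicle treated spheroids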
result_type: viability, T/C (%)

compound	unit_text	result
Cc1sc2c(c1C)C(c1ccc(Cl)cc1)=NC(CC(=O)Nc1ccc(O)cc1)c1nnc(C)n1-2 (centres undefined) + COc1cc2c(cc1O)CCNC21CSC2c3c(OC(C)=O)c(C)c4c(c3C(COC1=O)N1C(O)C3Cc5cc(C)c(OC)c(O)c5C(C21)N3C)OCO4	%	70.2
CNCc1ccc(-c2cc(-c3nc(-c4ccc(S(=O)(=O)C(C)C)cc4)cnc3N)on2)cc1 + COc1cc2c(cc1O)CCNC21CSC2c3c(OC(C)=O)c(C)c4c(c3C(COC1=O)N1C(O)C3Cc5cc(C)c(OC)c(O)c5C(C21)N3C)OCO4	%	9.57
Cn1ncnc1[C@H]1c2n[nH]c(=O)c3cc(F)cc(c23)N[C@@H]1c1ccc(F)cc1 + COc1cc2c(cc1O)CCNC21CSC2c3c(OC(C)=O)c(C)c4c(c3C(COC1=O)N1C(O)C3Cc5cc(C)c(OC)c(O)c5C(C21)N3C)OCO4	%	57.5
O=C(c1cc(Cc2n[nH]c(=O)c3ccccc23)ccc1F)N1CCN(C(=O)C2CC2)CC1 + COc1cc2c(cc1O)CCNC21CSC2c3c(OC(C)=O)c(C)c4c(c3C(COC1=O)N1C(O)C3Cc5cc(C)c(OC)c(O)c5C(C21)N3C)OCO4	%	101

----------
system: ASPS-1 complex tumor spheroids, viability; assay: Anticancer human tumor ASPS-1 cell line growth inhibition; details: second compound 0.00949 µM; first compound 0.0316 µM; stronger effect = lower value;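 also: spheroids exposed to agents for 7 days after 3 days of growth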;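 as to viability, T/C: 100% = DMSO vehicle treated spheroids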
A collection of compounds and their measured viability, T/C

compound	target_or_system	viability, T/C (%)
COc1ccc([C@@H](O)c2cc(-c3ncnc4cc(N5CCOCC5)ccc34)c(F)cc2Cl)nn1 + CC[C@@]1(O)C(=O)OCc2c1cc1n(c2=O)Cc2cc3c(CN(C)C)c(O)ccc3nc2-1	ASPS-1 complex tumor spheroids, viability	104
CC1COCCN1c1cc(-c2ccnn2C)c2ccnc(-c3ccn[nH]3)c2n1 (stereo unspecified) + CC[C@@]1(O)C(=O)OCc2c1cc1n(c2=O)Cc2cc3c(CN(C)C)c(O)ccc3nc2-1	ASPS-1 complex tumor spheroids, viability	56.9
Cc1cc(C)c(CNC(=O)c2cc(-c3ccc(CN4CCOCC4)cc3)cc3c2cnn3C2CCCC2)c(=O)[nH]1 + CC[C@@]1(O)C(=O)OCc2c1cc1n(c2=O)Cc2cc3c(CN(C)C)c(O)ccc3nc2-1	ASPS-1 complex tumor spheroids, viability	107
CC(C)n1c(=O)n(C)c2cnc3cc(F)c(-c4ccc(OCCCN5CCCCC5)nc4)cc3c21 + CC[C@@]1(O)C(=O)OCc2c1cc1n(c2=O)Cc2cc3c(CN(C)C)c(O)ccc3nc2-1	ASPS-1 complex tumor spheroids, viability	82.9
[2H]c1nc(C)nc([2H])c1-c1cc(NC[C@@H](C)c2cccc3c(C(=O)NC)ccnc23)ncn1 + CC[C@@]1(O)C(=O)OCc2c1cc1n(c2=O)Cc2cc3c(CN(C)C)c(O)ccc3nc2-1	ASPS-1 complex tumor spheroids, viability	112
COc1cc(C)[nH]c(=O)c1CN1CCc2c(Cl)cc(C(OC)C3COC3)c(Cl)c2C1=O (stereo unspecified) + CC[C@@]1(O)C(=O)OCc2c1cc1n(c2=O)Cc2cc3c(CN(C)C)c(O)ccc3nc2-1	ASPS-1 complex tumor spheroids, viability	112

The reported numbers originate from PubChem BioAssay AID1845200.
